- PROCEDURE DETAILS: Pharmacokinetics assessments in phase I patients (plasma, steady state)
- DETAILS: human, plasma, oral, AUC0→τ,ss, Day 28; Cohort 1: 750 mg QD MG005 plus 200 mg QD sorafenib; mean ± SD
EXPERIMENTAL ENDPOINT: AUC (ng·h/mL)
Numbers only, in ng·h/mL.

QUERY: Please look up its AUC: CNC(=O)c1cc(Oc2ccc(NC(=O)Nc3ccc(Cl)c(C(F)(F)F)c3)cc2)ccn1 [sorafenib, reference compound]
RESULT: 88600

###

- PROCEDURE DETAILS: Pharmacokinetics assessments in phase I patients (plasma, steady state)
- DETAILS: human, plasma, oral, Cmax,ss, Day 28; Cohort 2: 1500 mg QD MG005 plus 200 mg QD sorafenib; mean ± SD
EXPERIMENTAL ENDPOINT: Cmax

QUERY: Please look up its Cmax: CNC(=O)c1cc(Oc2ccc(NC(=O)Nc3ccc(Cl)c(C(F)(F)F)c3)cc2)ccn1 [sorafenib, reference compound]
RESULT: 3730 ng/mL
